- Tested on: NCI-H460 lung
- experiment: NCI-60 one-dose screen, 48 h (100 = growth as untreated, 0 = no growth, -100 = all killed)
- settings: 10 µM unless noted
Compounds without any hit were thinned out: in the full panel of roughly 83,000, 20% have a hit.
Entries and their measured growth follow.
Write it as a number; the unit % goes unstated.

Solved entries:
[
  {
    "compound": "O=C1/C(=C/c2ccc(O)cc2)COc2ccc(-c3ccccc3)cc21",
    "unit.of.measurement": "%",
    "growth": 66
  },
  {
    "compound": "O=C(N=Nc1c(O)[nH]c2ccc(F)cc12)c1cc2ccccc2[nH]1",
    "unit.of.measurement": "%",
    "growth": 100
  },
  {
    "compound": "O=C(CCN1CCCC1)Nc1ccc2c(Nc3ccccc3)c3ccccc3nc2c1",
    "unit.of.measurement": "%",
    "growth": -60.7
  },
  {
    "compound": "CC(=O)c1c(C)[nH]c(-c2nc3ccc(N4CCN(C)CC4)cc3[nH]2)c1-c1ccccc1",
    "unit.of.measurement": "%",
    "growth": 52.3
  },
  {
    "compound": "Cc1cccc(Oc2ccc(Nc3ncnc4ccc(NC(=O)CNCCO)cc34)cc2Cl)c1",
    "unit.of.measurement": "%",
    "growth": 39.2
  },
  {
    "compound": "CCCCCCC/C=C/[C@H]1O[C@]2(O)C(=O)C=C3C[C@@H](O[C@@H]4O[C@H](CO)[C@@H](O)C(O)[C@@H]4O)C[C@@H]3[C@H]2C=C1C (some centres undefined)",
    "unit.of.measurement": "%",
    "growth": 38.3
  },
  {
    "compound": "N#Cc1c(Nc2ccccc2)nn2cc(-c3nc4ccccc4s3)c(N)nc12",
    "unit.of.measurement": "%",
    "growth": 61.8
  },
  {
    "compound": "C=C(C)[C@@H]1CC[C@]2(C(=O)NCC(=O)OC)CC[C@]3(C)[C@H](CC[C@@H]4[C@@]5(C)Cc6c([nH]c7ccccc67)C(C)(C)[C@@H]5CC[C@]43C)[C@@H]12",
    "unit.of.measurement": "%",
    "growth": 74.6
  }
]

Please look at the following compound next.
Ask: Respond only with growth recorded for CC1(C)[C@H](O)CC[C@]2(C)[C@@H]1CC[C@@]13C[C@@H](CC[C@H]12)[C@@](O)(CO)C3
Result: 104

---

Entries and their measured growth follow.
- Tested on: BT-549 breast
- experiment: NCI-60 one-dose screen, 48 h (100 = growth as untreated, 0 = no growth, -100 = all killed)
- settings: 10 µM unless noted
This is part of a sample that, as a whole, favours compounds with a hit. Of some 83,000 tested, about 20% had one in any assay.
Write it as a number; the unit % goes unstated.

[
  {
    "molecule": "C=C1C(=O)O[C@H]2[C@H]1CC/C(CNC(=O)/C=C/c1ccc(Br)cc1)=C\\CC[C@@]1(C)O[C@@H]21",
    "growth / %": -59.7
  }
]

Ask: Respond only with growth recorded for CC(=O)N1c2ccccc2NC2=C(C(=O)N(C)C2(C)C)C1C (configuration not stated)
Result: 69.5

Ask: Respond only with growth recorded for O=C(/C=C\c1ccc(OCCCCCC[P+](c2ccccc2)(c2ccccc2)c2ccccc2)cc1)c1ccc2c(c1)OCCO2
Result: -16.9

Ask: Respond only with growth recorded for CCCCCCCCOC(=O)c1ccc(O)c(OC)c1
Result: 102

Ask: Respond only with growth recorded for CC(=O)CCSc1ccc(OC(C)=O)cc1
Result: 96.5

Ask: Respond only with growth recorded for COc1cc2nc(-c3ccc(C#N)cc3)[nH]c(=O)c2cc1OC
Result: 293

Ask: Respond only with growth recorded for O=C1NC(=S)NC(=O)C1=Cc1cn(Cc2ccccn2)c2ccccc12
Result: 66.8

Ask: Respond only with growth recorded for O=C(Cc1ccc(/C=C/C(=O)c2ncc[nH]2)cc1)Nc1ccc(C(F)(F)F)cc1
Result: 44

Ask: Respond only with growth recorded for Cc1ccc(C2CC(c3cccc(Nc4ccncc4)c3)=NN2c2ccc(Cl)cc2)cc1 (configuration not stated)
Result: 96.5

Ask: Respond only with growth recorded for CCN1C(=O)N(CC)C2NC(SC)=NC21 (configuration not stated)
Result: 103

Ask: Respond only with growth recorded for COc1cccc(C(Cc2ccccc2)Nc2ccccc2)c1OC (configuration not stated)
Result: 101

Ask: Respond only with growth recorded for COc1ccc(/C=N/NC(=O)c2cccc3cc[nH]c23)cc1O
Result: 55.9

---

Entries and their measured growth follow.
- Tested on: OVCAR-5 ovarian
- experiment: NCI-60 one-dose screen, 48 h (100 = growth as untreated, 0 = no growth, -100 = all killed)
- settings: 10 µM unless noted
About 83,000 compounds went through this panel and 20% of them were active in at least one assay; those are over-represented in the sample as a whole.
Write it as a number; the unit % goes unstated.

[
  {
    "test.smiles": "Cc1cc(NC(=O)c2cnc(N3CCN(CCOCCOCCOCCOCCC(=O)N[C@H](C(=O)N4C[C@H](O)C[C@H]4C(=O)N[C@@H](C)c4ccc(-c5scnc5C)cc4)C(C)(C)C)CC3)cn2)c2ncccc2c1",
    "target.system": "OVCAR-5 ovarian",
    "unit.of.measurement": "%",
    "growth": 80.4
  }
]

Ask: Respond only with growth recorded for CCCCCCc1nc2nc(Cl)c(Cl)nc2[nH]1
Result: 97.4

Ask: Respond only with growth recorded for O=C(Nc1nc2ccc(C(=O)N3CCN(c4ccc(Cl)c(Cl)c4)CC3)cc2s1)c1ccc(NCCc2ccccc2)c([N+](=O)[O-])c1
Result: 91.3

Ask: Respond only with growth recorded for COc1ccc(Cc2nc3cc(OC)c(OC)cc3c(=O)[nH]2)cc1
Result: 78.6

Ask: Respond only with growth recorded for CCCNC(=O)Oc1ccc(/C(=C(\C)c2ccccc2)c2ccc(OCCN3CCCCC3)cc2)cc1
Result: 78.2

Ask: Respond only with growth recorded for CC[C@@]12C=CCN3CC[C@]4(c5cc(NC(=O)COc6cc(OCC(=O)Nc7cc8c(cc7OC)N(C)[C@H]7[C@@](O)(C(=O)OC)[C@H](OC(C)=O)[C@]9(CC)C=CCN%10CC[C@]87[C@@H]%109)cc7oc(-c8ccccc8)cc(=O)c67)c(OC)cc5N(C)[C@@H]4[C@](O)(C(=O)OC)[C@H]1OC(C)=O)[C@H]32
Result: 30.2

---

- Test system: M14 melanoma
- experiment: NCI-60 one-dose screen, 48 h
- settings: 10 µM unless noted
The panel holds about 83,000 compounds, 20% with a hit somewhere; the sample as a whole holds those more often. The source made the active and inactive calls. The calls were made as follows: active = growth percent below 10; inactive = the rest.
Respond with a class label; see 1 (yes) (active), 0 (no) (inactive)

Ask: Hello, I am checking results. What call was entered for CN1CCCC1=Nc1ccccc1 ?
Result: 0 (no)

Ask: Hello, I am checking results. What call was entered for Fc1cc(C2=NNC(c3ccc[nH]3)C2)ccc1-n1ccc(C(F)(F)F)n1 (stereo not drawn) ?
Result: 0 (no)

Ask: Hello, I am checking results. What call was entered for COc1cnccc1-c1nc2ccc3[nH]ncc3c2c2c1CCCC2 ?
Result: 0 (no)

Ask: Hello, I am checking results. What call was entered for COc1cc(/C=C/C(=O)c2ccc(Nc3ncnc4ccccc34)cc2)cc(OC)c1 ?
Result: 0 (no)

Ask: Hello, I am checking results. What call was entered for CCCCCCCCCCCC(=O)C(CCCCCCCCCC)C(=O)Nc1ccccc1 (stereo not drawn) ?
Result: 0 (no)

Ask: Hello, I am checking results. What call was entered for Cc1c([N+](=O)[O-])cc(C(C)(C)C)cc1[N+](=O)[O-] ?
Result: 0 (no)

Ask: Hello, I am checking results. What call was entered for C[C@H]1[C@H](C)CC[C@]2(CO)CC[C@]3(C)C(=CC[C@@H]4[C@@]5(C)CCCNC(C)(C)[C@@H]5CC[C@]43C)[C@H]12 ?
Result: 1 (yes)

Ask: Hello, I am checking results. What call was entered for O=C(O)/C=C\C(=O)N1C/C(=C\c2ccccc2Cl)C(=O)/C(=C/c2ccccc2Cl)C1 ?
Result: 0 (no)

Ask: Hello, I am checking results. What call was entered for O=C(N/N=C/c1ccncc1)c1ccccc1Nc1cccc(C(F)(F)F)c1 ?
Result: 0 (no)

---

- System: HCT-116 colon
- experiment: NCI-60 one-dose screen, 48 h (100 = growth as untreated, 0 = no growth, -100 = all killed)
- settings: 10 µM unless noted
The panel holds about 83,000 compounds, 20% with a hit somewhere; the sample as a whole holds those more often.
Decision: growth compared against 60%; not below it gives MET, below it gives NOT MET.

[
  {
    "compound": "Cc1cccc(Oc2ccc(Nc3ncnc4ccc(NC(=O)CN(C)C)cc34)cc2Cl)c1",
    "answer.label": "NOT MET"
  },
  {
    "compound": "CCN(CC)CCSCCCNc1c(C)cnc2cc(Cl)ccc12",
    "answer.label": "NOT MET"
  },
  {
    "compound": "CCOC(=O)c1c(SC)nn(-c2cc(=O)[nH]c3ccc(Br)cc23)c1N",
    "answer.label": "MET"
  },
  {
    "compound": "COc1cc(NCC(O)CN(CC(C)C)C2CCCC2)c2ncccc2c1 (stereo unspecified)",
    "answer.label": "MET"
  },
  {
    "compound": "Brc1ccc(C2CC(c3cccc(Nc4ccncc4)c3)=NN2c2ccccc2)cc1 (stereo unspecified)",
    "answer.label": "MET"
  }
]

Ask: Item CCCCCCCCOc1ccc(/C=N/Nc2cc(C)nc3ccc(Cl)cc23)cc1 with growth of 60% or above?
Result: NOT MET

Ask: Item COc1ccc(C(O)c2cc3c(N)c(C(=O)Nc4cccc(OC)c4)sc3nc2C)cc1 (stereo unspecified) with growth of 60% or above?
Result: NOT MET

Ask: Item O=C1c2ccccc2-c2c1c1c(NCCCO)nc3ccccc3c1n2Cc1ccccc1 with growth of 60% or above?
Result: NOT MET

Ask: Item CC(=O)N1c2ccccc2NC2=C(C(=O)N(C)C2(C)C)C1C (stereo unspecified) with growth of 60% or above?
Result: NOT MET

Ask: Item COc1ccc(-c2cnc(N)nc2-c2ccc(OC)cc2O)cc1 with growth of 60% or above?
Result: MET

Ask: Item COc1cc2nc(-c3ccc(C#N)cc3)[nH]c(=O)c2cc1OC with growth of 60% or above?
Result: MET

Ask: Item O=C(O)CNC(=O)CN1C(=O)c2ccccc2C1=O with growth of 60% or above?
Result: MET

Ask: Item S=c1[nH]cccc1-c1nnc2n1Nc1nc3ccccc3cc1CS2 with growth of 60% or above?
Result: MET

Ask: Item Cc1ccc(C(c2c(O)c3cc(Br)ccc3[nH]c2=O)c2c(O)c3cc(Br)ccc3[nH]c2=O)cc1 with growth of 60% or above?
Result: MET

Ask: Item COc1ccccc1OCC(=O)N1CCCCCC1 with growth of 60% or above?
Result: MET

Ask: Item Cc1cc(NC(=O)c2cnc(N3CCN(CCOCCOCCOCCOCCC(=O)N[C@H](C(=O)N4C[C@H](O)C[C@H]4C(=O)N[C@@H](C)c4ccc(-c5scnc5C)cc4)C(C)(C)C)CC3)cn2)c2ncccc2c1 with growth of 60% or above?
Result: NOT MET

Ask: Item CCCCCCCCCCCCC1CCC/C=C\CCC(=O)O1 (stereo unspecified) with growth of 60% or above?
Result: MET

Ask: Item Cc1[nH]n(-c2cccc(Cl)c2)c(=O)c1/C=C1\C=Nc2ccc(Br)cc21 with growth of 60% or above?
Result: NOT MET

Ask: Item O=C(NNc1nc(Cl)nc(N2CCN(C(c3ccccc3)c3ccccc3)CC2)n1)c1ccccc1 with growth of 60% or above?
Result: NOT MET

Ask: Item CC(O)(CO)c1ccccc1 (stereo unspecified) with growth of 60% or above?
Result: MET
